The reported measurements were obtained from ChEMBL document CHEMBL3856239.

# run_description: AUC in Sprague-Dawley rat at 10 mg/kg, po measured after 8 hrs
# Format: ADME, organism-based
# Parameters: time < 8 hr, dose 10 mg/kg, route oral
# cond: in vivo
test_readout: AUC at 8 h
Answer format: number, then unit.

record_smiles: COc1cc(-n2cnc3cc(-c4ccc(Cl)cc4)sc3c2=O)ccc1OCC1(O)CCOCC1
AUC at 8 h: 0.4 µM·h

Now turn to the next compound.
Exam item: So what's the measured AUC at 8 h for this one? "COc1cc(-n2cnc3cc(-c4ccc(Cl)cc4)sc3c2=O)ccc1OCC1(O)CCC1"
Marked response: 0.2 µM·h

====

Reported concentration at 8 h values follow for various molecules
# run_description: Plasma concentration in Sprague-Dawley rat at 10 mg/kg, po measured after 8 hrs
# Format: ADME, organism-based
Write the value in nM as a bare number.

record_smiles: COc1cc(-n2cnc3cc(-c4ccc(Cl)cc4)sc3c2=O)ccc1OCC1(O)CCOCC1
test_readout: concentration at 8 h
recorded_result: 29

Exam item: So what's the measured concentration at 8 h for this one? "COc1cc(-n2cnc3cc(-c4ccc(Cl)cc4)sc3c2=O)ccc1OCC1(O)CCC1"
Marked response: 6
